# target-system: T1, human beta CGRP (SEQ ID NO: 81) (human, not fully specified)
# T1 construct: also called human βCGRP; hβCGRP
# T1 peptide: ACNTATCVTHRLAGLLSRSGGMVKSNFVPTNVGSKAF
# procedure-summary: SPR as in Example 5
readout-kind: Kd

binder: cysteine-free lipocalin mutein SEQ ID NO: 39 (designed binder, biotinylated by NHS chemistry for capture in SPR) QDSTSDLIPAPPLSKVPLQQNFQDNQFQGKWYVVGWAGNTLLREDKDPIKMQAMIYELKEDKSYNVTWVYFADKKKNYHIETFVPGSQPGEFTLGTIKSYPGETPILVRVVSTNYNQHAMVFFKGVNQNREIFEIVLYGRTKELTNELKENFIRFSKSLGLPENHIVFPVPIDQDIDGSAWSHPQFEK
readout-kind: Kd
data-value: 0.034 nM

binder: cysteine-free lipocalin mutein SEQ ID NO: 33 (designed binder, biotinylated by NHS chemistry for capture in SPR) QDSTSDLIPAPPLSKVPLQQNFQDNQFQGKWYVVGWAGNTLLREDKDPIKMQAMIYELKEDKSYNVTWVYFADKKLNYHIETFVPGSQPGEFTLGTIKSYPGETPILVRVVSTNYNQHAMVFFKGVNQNREIFEIVLYGRTKELTNELKENFIRFSKSLGLPENHIVFPVPIDQWIDGSAWSHPQFEK
readout-kind: Kd
data-value: 0.018 nM

binder: cysteine-free lipocalin mutein SEQ ID NO: 37 (designed binder, biotinylated by NHS chemistry for capture in SPR) QDSTSDLIPAPPLSKVPLQQNFQDNQFQGKWYVVGWAGNTLLREDKDPIKMQAMIYELKEDKSYNVTWVYFADKKNNYHIETFVPGSQPGEFTLGTIKSYPGETPILVRVVSTNYNQHAMVFFKGVNQNREIFEIVLYGRTKELTNELKENFIRFSKSLGLPENHIVFPVPIDQLIDGSAWSHPQFEK
readout-kind: Kd
data-value: 0.023 nM

Reference for the values: patent US20190338002A1
